Source of measurements: patent EP3492483A1

- assayedTarget: FimH (Escherichia coli, UniProt Q1R2J4)
- Construct: endogenous in cells; host or cells: type 1 piliated UPEC bacteria
- Sequence (P08190 24-167, other chains not shown): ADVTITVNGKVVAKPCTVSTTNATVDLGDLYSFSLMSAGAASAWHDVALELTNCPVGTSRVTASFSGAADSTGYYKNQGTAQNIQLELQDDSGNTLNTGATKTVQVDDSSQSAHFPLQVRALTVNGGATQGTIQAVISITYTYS
- assayExplanation: cell-based
- Design: species or system UPEC
- details: Table 1
Hi! Could you tag entries with HAI Titer EC>90 below 30 µM as satisfied, and those at or above as not satisfied? Much appreciated.

Task: Dear reviewer, please state whether N#Cc1cccc(OC2OC(CO)C(O)C(O)C2O)c1 (stereo not shown) has HAI Titer EC>90 strictly beneath 30 µM.
Result: satisfied

Task: Lab note: HAI Titer EC>90 threshold 30 µM. Does this molecule come in strictly under it? COC(=O)Cc1cc(OC2OC(CO)C(O)C(O)C2O)ccc1O (stereo not shown)
Result: satisfied

Task: Here's an entry: "COC(=O)c1cccc(-c2ccc(O[C@H]3O[C@H](CO)[C@@H](O)[C@H](O)[C@@H]3O)cc2)c1" . Is its HAI Titer EC>90 below 30 µM?
Result: satisfied

Task: Does this molecule meet the criterion HAI Titer EC>90 < 30 µM? O=[N+]([O-])c1ccc(COC2OC(CO)C(O)C(O)C2O)cc1 (stereo not shown)
Result: not satisfied

Further cases:
Task: Problem: For the molecule CC(=O)Nc1cccc(OC2OC(CO)C(O)C(O)C2O)c1 (stereo not shown) , is HAI Titer EC>90 under 30 µM?
Result: satisfied

Task: # strict comparison: is reported HAI Titer EC>90 < 30 µM? input = CC(=O)Nc1ccccc1OC1OC(CO)C(O)C(O)C1O (stereo not shown)
Result: not satisfied
